- protocol_notes: Half life in dog at 1 mg/kg, iv
- Assay type: ADME, organism-based, Canis lupus familiaris
- Parameters: dose 1 mg/kg, route intravenous
- particulars: in vivo
endpoint_label: half-life (h)

structure_notation	result
COC(=O)N[C@H](C(=O)N1CCC[C@H]1C(=O)Nc1ccc([C@H]2CC[C@H](c3ccc(NC(=O)[C@@H]4CCCN4C(=O)[C@@H](NC(=O)OC)C(C)C)cc3)N2c2ccc(F)cc2)cc1)C(C)C	2
COC(=O)N[C@H](C(=O)N1CCC[C@H]1C(=O)Nc1ccc([C@H]2CC[C@H](c3ccc(NC(=O)[C@@H]4CCCN4C(=O)[C@@H](NC(=O)OC)C(C)C)cc3)N2c2ccc(C(F)(F)F)cc2)cc1)C(C)C	4.4
COC(=O)N[C@H](C(=O)N1CCC[C@H]1C(=O)Nc1ccc([C@@H]2CC[C@@H](c3ccc(NC(=O)[C@@H]4CCCN4C(=O)[C@@H](NC(=O)OC)C(C)C)cc3)N2c2ccc(C(C)(C)C)cc2)cc1)C(C)C	7.9

1. COC(=O)N[C@H](C(=O)N1CCC[C@H]1C(=O)Nc1ccc([C@H]2CC[C@H](c3ccc(NC(=O)[C@@H]4CCCN4C(=O)[C@@H](NC(=O)OC)C(C)(C)C)cc3)N2c2ccc(F)cc2)cc1)C(C)(C)C
2. COC(=O)N[C@H](C(=O)N1CCC[C@H]1C(=O)Nc1ccc([C@@H]2CC[C@@H](c3ccc(NC(=O)[C@@H]4CCCN4C(=O)[C@@H](NC(=O)OC)C(C)C)cc3)N2c2ccc(C(F)(F)F)cc2)cc1)C(C)C
**Query** Given the listed records, identify the one among 1 and 2 with higher half-life. Please identify the chosen entry by its label.
**Result** 1
